tested on: Protein farnesyltransferase (Homo sapiens, UniProt P49354+P49356)
procedure text: Inhibition of human FTase using farnesyl pyrophosphate as substrate by fluorescent assay
Threshold 3 µM: IC50 strictly smaller gives Criterion met, otherwise Criterion not met.

These solved cases illustrate the format of a correct answer.
- compound: "Cc1ccc(Oc2ncccc2NC(=O)CCCC(=O)O)c2c1CCC2"
  tested on: "Protein farnesyltransferase (Homo sapiens, UniProt P49354+P49356)"
  class label: "Criterion not met"
- compound: "O=C(c1ccccc1)c1ccc(/N=C/c2cc([N+](=O)[O-])ccc2O)cc1"
  tested on: "Protein farnesyltransferase (Homo sapiens, UniProt P49354+P49356)"
  class label: "Criterion not met"
- compound: "COc1ccc(-c2cc(C(=O)OCC(=O)c3cccc4ccccc34)c3ccccc3n2)cc1"
  tested on: "Protein farnesyltransferase (Homo sapiens, UniProt P49354+P49356)"
  class label: "Criterion met"
- compound: "O=C(c1ccc(Cl)cc1)N1N=C(c2c(-c3ccccc3)c3cc(Br)ccc3[nH]c2=O)CC1c1ccco1 (stereo not given)"
  tested on: "Protein farnesyltransferase (Homo sapiens, UniProt P49354+P49356)"
  class label: "Criterion met"
- compound: "CCOC(=O)c1c(C)oc2c1cc(NS(=O)(=O)c1ccc(C(=O)O)cc1)c1ccccc12"
  tested on: "Protein farnesyltransferase (Homo sapiens, UniProt P49354+P49356)"
  class label: "Criterion not met"

[ask] Threshold test, IC50 < 3 µM: "Oc1ccc(NCc2cc(Cl)ccc2OCc2ccccc2F)cc1"
[reply] Criterion not met

[ask] I'd appreciate it if you could check whether COc1cccc(C2C(C(=O)/C=C/c3ccccc3)=C(O)C(=O)N2c2ccccc2)c1 (stereo not given) has IC50 smaller than 3 µM.
[reply] Criterion met

[ask] is_below(IC50, 3 µM) for COCCN1C(=O)C(O)=C(C(=O)c2ccc(C)cc2)C1c1cccc(Oc2ccccc2)c1 (stereo not given) ?
[reply] Criterion not met

====

tested on: Protein farnesyltransferase (Homo sapiens, UniProt P49354+P49356)
procedure text: Inhibition of human FTase using farnesyl pyrophosphate as substrate by fluorescent assay
measurement name: pIC50
Here pIC50 is given on a logarithmic scale as minus log10 of the concentration in mol/L.

Consider the following illustrative entries.
- smiles input: "Cc1cccc(Oc2ccc(NC(=O)c3ccccc3C(=O)O)cc2)c1C"
  reported: 5.16
- smiles input: "CCN(CC)c1ccc(/C=N/Nc2nc(NCc3ccco3)nc(Nc3ccc(OC)cc3)n2)c(OCc2ccc(Cl)cc2Cl)c1"
  reported: 7.29

Moving on to another molecule below.
For record "Cc1ccc(OC(=O)c2ccc3c(c2)C(=O)N(c2cccc4ccccc24)C3=O)cc1" the listed pIC50 is 6.36

====

tested on: Protein farnesyltransferase (Homo sapiens, UniProt P49354+P49356)
procedure text: Inhibition of human FTase using farnesyl pyrophosphate as substrate by fluorescent assay
The compounds listed here are annotated with their IC50.

- compound: "Cc1cncc(NC(c2cccc(OCc3ccccc3)c2)c2ccc3cccnc3c2O)c1 (configuration not stated)"
  tested on: "Protein farnesyltransferase (Homo sapiens, UniProt P49354+P49356)"
  IC50: "0.0489 µM"

Record "Cc1c(Cc2ccccc2)sc(CC(=O)CCC(=O)O)c1C(N)=O" , field IC50: 3.52 µM

compound "COc1cc(CNc2ccc(O)cc2)cc(Cl)c1OCc1ccc(Cl)cc1" , IC50 observed: 2.57 µM

Just so you know, measured IC50 for "O=C(N/N=C\c1cn(Cc2ccc([N+](=O)[O-])cc2)c2ccccc12)c1cc2ccccc2o1" came out at 0.14 µM

For "CC1=NN(c2ccccc2)C(=O)/C1=C/c1ccccc1OCc1ccc(C(=O)O)cc1" the compound record lists IC50 as 2.58 µM

Memo: COc1cc(/C=C2\S/C(=N\c3ccccc3)N(Cc3ccco3)C2=O)ccc1OC(C)C(=O)O (configuration not stated) , reported IC50: 5.14 µM

The compound identified as Cc1ccc(Oc2ncccc2NC(=O)CC(CC(=O)O)c2ccccc2)c2c1CCC2 (configuration not stated) registered its IC50 at 13.3 µM

The compound "Oc1cccc2ccc(/C=C/c3ccccc3OCc3ccccc3Cl)nc12" showed IC50 equal to 0.0119 µM

The compound listed as O=C(O)C1CCCCC1C(=O)Nc1ccc(Oc2ccccc2)cc1 (configuration not stated) has a reported IC50 of 3.56 µM

Record summary for "N#Cc1c(SCc2ccc(C(=O)O)cc2)nc2c(c1-c1ccccc1)CCC2" : reported IC50 = 5.6 µM

The value of IC50 measured for the compound Cn1cncc1[C@@](N)(c1ccc(Cl)cc1)c1ccc2c(c1)c(-c1cccc(Cl)c1)cc(=O)n2C [TIPIFARNIB] turned out to be 0.003 µM

Looking up "O=C(O)c1ccc(/N=[N+](/[O-])c2ccccc2Sc2ccccc2C(=O)O)cc1Sc1ccccc1O" , I see its IC50 listed as 3.22 µM
